FYI, the data here is from PubChem BioAssay AID1159606.

Recorded measurements of inhibition, one per entry
- test_protocol: inhibitors of TWEAK-Fn14 signaling, primary screen, luciferase reporter cells, uHTS (AID 1159606)
- study_conditions: TWEAK-stimulated Fn14 reporter cells, luciferase luminescence, 8 h; at 10 µM; stronger effect = higher value
Hit rate of the full screen: of about 360,000 compounds, about 7,300 (2%) were called active. This is one part of a sample in which actives are shown more often than they occur.
measured_endpoint: inhibition (%)

>>> numeric_readout("CC(=O)N(Cc1cc(=O)[nH]c2ccccc12)c1ccc(C)cc1C")
4.2
>>> numeric_readout("COc1cc(SC)ccc1C(=O)NNC(=O)C1COc2ccccc2O1 (stereo not given)")
-29.7
>>> numeric_readout("O=C(CN1C(=O)CSC1=O)N1CCCC(Nc2ccc(F)cc2)C1 (stereo not given)")
89.2
>>> numeric_readout("Cc1ccc(S(=O)(=O)N2CCN(C(=O)c3ccccc3-c3nc4ccccc4s3)CC2)c(C)c1")
-40.8
>>> numeric_readout("CN(C(=O)c1ccccn1)c1nnc(-c2ccccn2)s1")
-1.91
>>> numeric_readout("OCCNc1nc(Nc2ccc(Cl)c(Cl)c2)nc2ccccc12")
84.3
>>> numeric_readout("O=C(Nc1nnc(C2CC2)s1)c1ccccn1")
65.5
>>> numeric_readout("COc1cc(SC)ccc1C(=O)Nc1nc(C)cs1")
102
>>> numeric_readout("COc1cnc(SCc2ccc(Cl)c(Cl)c2)nc1Cl")
-23.9
>>> numeric_readout("CN(C)S(=O)(=O)c1ccc(N2CCCC2)c(C(=O)NCc2ccccc2)c1")
63.4
>>> numeric_readout("CC(C)Cn1c(SCC(=O)Nc2ccc(Cl)cc2F)nc(O)cc1=O")
0.05
>>> numeric_readout("CC(=O)Nc1ccc(S(=O)(=O)Nc2nc3n(n2)C(c2ccccc2)CC(=O)N3)cc1 (stereo not given)")
-1.82
>>> numeric_readout("CCCS(=O)(=O)NC(=O)C1(C)CCCN(C(=O)c2cccs2)C1 (stereo not given)")
-4
>>> numeric_readout("CC(C)CCNC(=O)c1ccc2c(Cl)c3c(nc2c1)CCC3")
58.4
>>> numeric_readout("COc1nc(N(C)C)nc(N2CC(=O)N(CCNS(=O)(=O)c3ccc(C)cc3)C2=N)n1")
-3.28
>>> numeric_readout("CCN(CCCNC(=O)CCn1c(=O)[nH]c2ccsc2c1=O)c1ccccc1")
-1.46
>>> numeric_readout("CCOC(=O)C(=O)C1C(=O)Nc2ccccc21 (stereo not given)")
6.46
>>> numeric_readout("CC(C)(C)n1ncc2c(=O)n(Cc3ccc(Cl)cc3)cnc21")
68.2
>>> numeric_readout("CC(Sc1nncn1C)C(=O)NCCC1=CCCCC1 (stereo not given)")
-1.74
>>> numeric_readout("CCOC(=O)c1sc(NC(=O)c2sc(C)nc2C)nc1C")
-39.5
>>> numeric_readout("CCCS(=O)(=O)Nc1ccc(-c2cn3c(n2)SCC3)cc1")
-17.6
>>> numeric_readout("COc1ccc(C2NC(=S)NC3=C2CCc2ccccc23)cc1OC (stereo not given)")
9.33
>>> numeric_readout("O=C(Cn1c(NCCO)nc2ccccc21)c1ccc(Cl)cc1Cl")
22.5
>>> numeric_readout("COc1ccccc1-n1c(SCC(=O)Nc2ccc(Cl)cc2)nc(O)c(Cc2ccccc2)c1=O")
-7.18
>>> numeric_readout("CC(=O)N1Cc2cc(C(=O)NCc3cccc(F)c3)nc(-c3cccc(C4=CCCCC4)c3)c2[C@H]1CCO")
24.6
>>> numeric_readout("COc1ccc(C2CC(c3cccc(OC)c3)=NN2c2ccc(S(N)(=O)=O)cc2)cc1 (stereo not given)")
-3.98
>>> numeric_readout("COc1ccc(C(=O)NC(C)CCc2ccccc2)c(OC)c1 (stereo not given)")
-8.93
>>> numeric_readout("O=C(Cc1ncc(C(F)(F)F)cc1Cl)Nc1cccc(Br)c1")
6.6
>>> numeric_readout("CC1(C)C2CC[C@]3(C)C(CC=C4[C@@H]5C[C@@](C)(CO)CC[C@]5(C(=O)O)CC[C@]43C)[C@@]2(C)CC[C@@H]1O (stereo not given in full)")
-12.1
>>> numeric_readout("COc1ccc(C(=O)OCC(=O)c2ccc(Cl)s2)c(OC)c1OC")
-38.7
>>> numeric_readout("COC(=O)c1sc(NC(=O)c2ccc(OC)cc2OC)nc1C")
69
>>> numeric_readout("CN1CCN(c2ccc3c(c2)OC[C@H](Cc2ccccc2)NS3(=O)=O)CC1")
-3.51
>>> numeric_readout("COC(=O)CCCCC1=CCC2C(=O)C=C(O)C2C1 (stereo not given)")
-0.75
>>> numeric_readout("Cc1ccc(N(Cc2cc(=O)[nH]c3ccccc23)C(=O)CCl)cc1")
52.1
>>> numeric_readout("Cn1c(SCC(=O)Nc2ccc(Cl)cc2)nc(O)cc1=O")
80.5
>>> numeric_readout("COc1ccc(OC)c(CN2C(=O)CCC2(C)c2nnnn2Cc2ccccc2)c1 (stereo not given)")
-0.14
>>> numeric_readout("CC(=O)Cn1cnc2c(cnn2-c2ccccc2)c1=O")
4.23
>>> numeric_readout("CCN1CCN(CCNC(=O)c2ccc3c(c2)NC(=O)/C(=C\\c2cccc(Cl)c2)S3)CC1")
-66.6
>>> numeric_readout("COc1cc(/C=C/C(=O)OCC(=O)Nc2cccc(Oc3ccccc3)c2)ccc1O")
14.2
>>> numeric_readout("Cc1cnc(NC(=O)c2ccccn2)s1")
55.5
>>> numeric_readout("Cc1cnc(NC(=O)Cn2cnc3c2c(=O)n(C)c(=O)n3C)s1")
6.18
>>> numeric_readout("COC(=O)c1ccc(OC(=O)c2nn(C)cc2Cl)c(OC)c1")
-9.75
>>> numeric_readout("CCC(=O)N(Cc1cc2ccccc2[nH]c1=O)c1ccc(OC)cc1")
-8.72
>>> numeric_readout("CC(CO)NCC12CC3CC(CC(C3)C1)C2 (stereo not given)")
13.3
>>> numeric_readout("CCN(CCCNC(=O)c1ccc2c(c1)NC(=O)CN2C)c1cccc(C)c1")
82.5
